- test.target: T1, Human CD19-his protein (human, UniProt P15391 20-291)
- T1 construct: bought protein; also called human CD19 protein; recombinant human CD19-His; not shown: His tag
- T1 sequence (looked up): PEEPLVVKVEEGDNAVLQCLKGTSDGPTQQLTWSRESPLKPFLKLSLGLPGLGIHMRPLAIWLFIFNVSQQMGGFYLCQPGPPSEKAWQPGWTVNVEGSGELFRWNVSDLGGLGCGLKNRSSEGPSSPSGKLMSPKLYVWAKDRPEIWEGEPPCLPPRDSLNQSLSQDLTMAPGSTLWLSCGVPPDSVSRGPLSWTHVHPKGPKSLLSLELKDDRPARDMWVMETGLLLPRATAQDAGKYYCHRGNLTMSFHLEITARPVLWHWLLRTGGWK
- assay.overview: ELISA, antibody at 1.00 nM
experimental.endpoint: OD450
Reply with just the number.

Some binders with known OD450 results, for comparison:
F4.41.1 (antibody, human IgG1, V domains shown, human-murine chimeric antibody, human IgG1) VH: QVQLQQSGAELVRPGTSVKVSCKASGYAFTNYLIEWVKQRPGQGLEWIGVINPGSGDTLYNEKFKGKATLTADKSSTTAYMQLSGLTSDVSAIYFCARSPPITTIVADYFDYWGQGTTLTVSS VL: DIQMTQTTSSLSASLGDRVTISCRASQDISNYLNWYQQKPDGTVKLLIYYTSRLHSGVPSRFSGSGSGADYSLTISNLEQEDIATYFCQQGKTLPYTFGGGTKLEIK ... 0.43
F4.35.5 (antibody, human IgG1, V domains shown, human-murine chimeric antibody, human IgG1) VH: EIQLQQSGPELVKPGASVKVSCKASGYAFTSYNMYWVKQSHGKSLEWIGYIDPYNGDTRYNQKFKGKATLTVDKSSSTAYMHLNSLTSEDSAVYYCTRSGTGRDYWGQGTTLTVSS VL: QIVLTQSPAIMSASPGEKVTMTCSASSSISYMFWFQQKPGSSPRLLIYDTSSLASGVPVRFSGSGSGTSYTLTISRMEAEDAATYYCQQWSNYPYTFGGGTKLEMK ... 0.5
F4.4.6 (antibody, human IgG1, V domains shown, human-murine chimeric antibody, human IgG1) VH: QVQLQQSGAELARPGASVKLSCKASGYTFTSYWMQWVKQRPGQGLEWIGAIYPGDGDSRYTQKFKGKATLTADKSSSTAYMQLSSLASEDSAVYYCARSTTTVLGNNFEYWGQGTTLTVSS VL: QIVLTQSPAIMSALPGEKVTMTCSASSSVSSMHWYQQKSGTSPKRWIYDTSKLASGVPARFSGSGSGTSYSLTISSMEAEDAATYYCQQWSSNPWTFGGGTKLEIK ... 0.6
F3.124.7 (antibody, human IgG1, V domains shown, human-murine chimeric antibody, human IgG1) VH: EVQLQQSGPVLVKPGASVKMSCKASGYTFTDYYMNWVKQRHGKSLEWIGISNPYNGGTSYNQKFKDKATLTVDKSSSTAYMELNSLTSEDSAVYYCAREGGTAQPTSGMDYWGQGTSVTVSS VL: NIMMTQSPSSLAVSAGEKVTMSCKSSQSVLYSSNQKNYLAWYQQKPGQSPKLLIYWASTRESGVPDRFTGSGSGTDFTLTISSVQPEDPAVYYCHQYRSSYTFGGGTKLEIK ... 2.6
F4.145.9 (antibody, human IgG1, V domains shown, human-murine chimeric antibody, human IgG1) VH: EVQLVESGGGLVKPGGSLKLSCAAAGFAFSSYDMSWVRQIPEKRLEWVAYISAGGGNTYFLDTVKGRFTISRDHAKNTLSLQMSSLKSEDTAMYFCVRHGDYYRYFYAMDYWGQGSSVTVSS VL: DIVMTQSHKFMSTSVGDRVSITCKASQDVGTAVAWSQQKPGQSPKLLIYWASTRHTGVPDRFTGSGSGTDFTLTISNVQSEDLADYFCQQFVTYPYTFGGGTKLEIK ... 1.79

// query OD450 value for entry F4.96.6 (antibody, human IgG1, V domains shown, human-murine chimeric antibody, human IgG1) VH: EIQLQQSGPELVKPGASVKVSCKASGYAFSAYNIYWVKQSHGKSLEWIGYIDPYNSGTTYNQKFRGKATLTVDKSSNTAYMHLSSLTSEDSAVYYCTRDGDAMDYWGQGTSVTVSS VL: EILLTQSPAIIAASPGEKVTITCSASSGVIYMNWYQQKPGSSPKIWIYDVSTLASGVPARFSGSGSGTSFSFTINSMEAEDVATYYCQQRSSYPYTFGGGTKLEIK
0.91

// query OD450 value for entry F4.48.12 (antibody, human IgG1, V domains shown, human-murine chimeric antibody, human IgG1) VH: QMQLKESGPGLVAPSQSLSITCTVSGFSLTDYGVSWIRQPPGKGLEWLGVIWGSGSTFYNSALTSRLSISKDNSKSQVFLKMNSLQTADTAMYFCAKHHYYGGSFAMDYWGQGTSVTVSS VL: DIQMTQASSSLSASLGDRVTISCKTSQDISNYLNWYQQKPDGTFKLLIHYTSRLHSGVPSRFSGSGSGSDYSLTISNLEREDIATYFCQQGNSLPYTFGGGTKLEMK
1.89

// query OD450 value for entry F3.13.2 (antibody, human IgG1, V domains shown, human-murine chimeric antibody, human IgG1) VH: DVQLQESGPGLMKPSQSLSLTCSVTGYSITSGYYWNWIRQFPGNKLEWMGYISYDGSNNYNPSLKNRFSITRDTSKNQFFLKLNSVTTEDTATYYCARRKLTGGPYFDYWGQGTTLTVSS VL: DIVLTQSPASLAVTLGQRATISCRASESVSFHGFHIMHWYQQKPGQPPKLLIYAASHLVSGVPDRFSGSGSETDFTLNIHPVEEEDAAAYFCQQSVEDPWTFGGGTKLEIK
0.18

// query OD450 value for entry F2.15.26 (antibody, human IgG1, V domains shown, human-murine chimeric antibody, human IgG1) VH: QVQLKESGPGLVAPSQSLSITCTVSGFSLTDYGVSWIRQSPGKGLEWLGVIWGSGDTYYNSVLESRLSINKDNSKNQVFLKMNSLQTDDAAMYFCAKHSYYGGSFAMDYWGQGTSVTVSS VL: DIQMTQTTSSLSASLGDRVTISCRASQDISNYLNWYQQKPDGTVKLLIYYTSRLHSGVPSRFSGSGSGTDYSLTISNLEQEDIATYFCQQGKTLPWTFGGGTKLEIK
1.3

// query OD450 value for entry F5.7.1 (antibody, human IgG1, V domains shown, human-murine chimeric antibody, human IgG1) VH: QVTLKESGPGILQPSQTLSLTCSFSGFSLTTFGMGVGWIRQPSGKGLEWLTHIWWDDDKYYNPALKSRLTISKDTSKNQVFLRIANVDTADTATYYCARVITTGVPYFDYWGQGTTLTVSS VL: ENVLTQSPAIMSASPGEKVTMTCRASSSVSSSYLYWYQQKSGASPKLWISSTSNLASGVPARFSGSGSGTSYSLTINSVEAEDAATYYCQQYSGYPWTFGGGTKLEIK
1.62

The reported numbers originate from patent US20250042994A1.
